The origin of these recorded values is PubChem BioAssay (NCI).

System: MALME-3M melanoma
Assay: NCI-60 one-dose screen, 48 h (100 = growth as untreated, 0 = no growth, -100 = all killed)
Settings: 10 µM unless noted
This is part of a sample that, as a whole, favours compounds with a hit. Of some 83,000 tested, about 20% had one in any assay. Activity calls are given as the source filed them. Rule for the calls: active = growth percent below 10; inactive = the rest.
readout_type: growth

[
  {
    "mol_smiles": "NS(=O)(=O)c1ccccc1NC(=O)Nc1nc2ccccc2s1",
    "readout_type": "growth",
    "result": "91.9% (inactive)"
  },
  {
    "mol_smiles": "O=c1[nH]c(Cc2nc3ccccc3s2)nc2cc(Br)ccc12",
    "readout_type": "growth",
    "result": "90.7% (inactive)"
  }
]

Turning to the following molecule.
Response field growth (MALME-3M melanoma) for item "COc1cc(OC)c(/C=C/C(=O)c2c(OC)cccc2OC)c(OC)c1" : 51.4% (inactive)

###

Test system: NCI-H322M lung
Assay: NCI-60 one-dose screen, 48 h
Conditions: 10 µM unless noted
The panel holds about 83,000 compounds, 20% with a hit somewhere; the sample as a whole holds those more often. Activity calls are given as the source filed them. Rule for the calls: active = growth percent below 10; inactive = the rest.
Pick from yes (active), no (inactive) when you respond.

Would you please look over these solved cases?
[
  {
    "molecule": "O=S(=O)(Nc1cc(Cl)ccc1Cl)c1ccc(-c2cnc(C3CC3)o2)cc1",
    "class": "no"
  },
  {
    "molecule": "N#CC(C#N)N=Nc1ccc(Br)cc1",
    "class": "no"
  },
  {
    "molecule": "CCOC(=O)c1cc2c(n1Cc1cc(OC)c(OC)c(OC)c1)-c1nc(N)sc1CCC2",
    "class": "no"
  }
]

Kindly consider the entry below.
Q: Recorded test outcome, item "O=S(=O)(Nc1ccc(F)cc1F)c1ccc(-c2cnc(C3CC3)o2)cc1"
Result: no

###

Tested on: NCI/ADR-RES ovarian
Assay: NCI-60 one-dose screen, 48 h
Conditions: 10 µM unless noted
About 83,000 compounds went through this panel and 20% of them were active in at least one assay; those are over-represented in the sample as a whole. Calls of active or inactive are those of the source. How the source made its calls: active means growth percent below 10; inactive means the rest.
Your response should consist of one outcome taken from class 1 = active, class 0 = inactive

[
  {
    "molecule": "C=C(C)[C@@H]1CC[C@]2(CO)CC[C@]3(C)[C@H](CC[C@@H]4[C@@]5(C)CC[C@H](NCO)C(C)(C)[C@@H]5CC[C@]43C)[C@@H]12",
    "class": "class 1"
  },
  {
    "molecule": "COc1ccc(NC(=O)c2sc3nc(C)c(C(=O)/C=C/c4ccccc4)cc3c2N)cc1",
    "class": "class 0"
  },
  {
    "molecule": "COc1ccc(OC)c(-c2nc(SCC(=O)c3ccc(C#N)cc3)[nH]c(=O)c2C#N)c1",
    "class": "class 0"
  },
  {
    "molecule": "Cc1cc(C(=O)Nc2ncc(Cc3cccc(C(F)(F)F)c3)s2)c2ccccc2n1",
    "class": "class 0"
  },
  {
    "molecule": "CC/C(=C(/c1ccc(Cl)cc1)c1ccc(OCCN(C)C)cc1)c1ccc(Cl)cc1",
    "class": "class 0"
  }
]

Q: // return assay outcome for "CC(C)Cn1cnc2c(=O)[nH]c(N)nc21"
Result: class 0

Q: Hi team, can someone confirm the assay call for "NC(=O)c1c(NC(=O)c2ccc3ccccc3c2)sc2c1CCC(=O)C2" ?
Result: class 0

Q: Recorded test call requested for "CCCC/C(CC)=N\NS(=O)(=O)c1ccc([N+](=O)[O-])cc1"
Result: class 0
